IC50 values recorded for Cyclin-dependent kinase 1 (Homo sapiens, UniProt P06493)
ASSAY METRIC: IC50 (nM)

>>> endpoint_value("COCCOCCOCCOCCN(C)S(=O)(=O)c1ccc(N/C=C2\\C(=O)Nc3ccc4ncsc4c32)cc1")
45
>>> endpoint_value("CC(C)CC(=O)c1ccc2c(c1)/C(=C/Nc1ccc(S(N)(=O)=O)cc1)C(=O)N2")
16
>>> endpoint_value("O=C1Nc2ccc3ncsc3c2/C1=C/Nc1ccc(S(=O)(=O)NCCO)cc1")
41

====

- TARGET UNDER TEST: Cyclin-dependent kinase 1 (Homo sapiens)
- Sequence (P06493 whole entry): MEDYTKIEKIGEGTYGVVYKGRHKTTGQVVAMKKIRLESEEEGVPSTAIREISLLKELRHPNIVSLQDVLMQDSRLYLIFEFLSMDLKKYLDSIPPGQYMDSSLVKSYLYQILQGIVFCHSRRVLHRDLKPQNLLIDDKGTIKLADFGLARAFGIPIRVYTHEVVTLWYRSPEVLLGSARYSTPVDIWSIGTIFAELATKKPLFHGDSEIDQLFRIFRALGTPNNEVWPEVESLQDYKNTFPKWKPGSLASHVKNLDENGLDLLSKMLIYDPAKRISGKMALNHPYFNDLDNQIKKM
Measured IC50 accompanies every entry in the list below.
ASSAY METRIC: IC50 (µM)

>>> endpoint_value("NS(=O)(=O)c1ccc(NN=C2C(=O)Nc3ccc([N+](=O)[O-])cc32)cc1")
0.71
>>> endpoint_value("NS(=O)(=O)c1ccc(NN=C2C(=O)Nc3cccc(Oc4ccccc4)c32)cc1")
0.29
>>> endpoint_value("NS(=O)(=O)c1ccc(NN=C2C(=O)Nc3cccc(CCc4ccncc4)c32)cc1")
0.29
>>> endpoint_value("CNS(=O)(=O)Cc1ccc(NN=C2C(=O)Nc3ccc4ncsc4c32)cc1")
0.056
>>> endpoint_value("COCCOCCOCCOCCNS(=O)(=O)c1ccc(N/C=C2\\C(=O)Nc3ccc4ncsc4c32)cc1")
0.072
>>> endpoint_value("CCOc1cccc2c1C(=NNc1ccc(S(N)(=O)=O)cc1)C(=O)N2")
0.55
>>> endpoint_value("NS(=O)(=O)c1ccc(NN=C2C(=O)Nc3ccc(F)cc32)cc1")
0.29
>>> endpoint_value("N=C(N)NS(=O)(=O)c1ccc(N/C=C2\\C(=O)Nc3ccc4ncsc4c32)cc1")
0.045
>>> endpoint_value("Nc1ccc2c(c1)C(=NNc1ccc(S(N)(=O)=O)cc1)C(=O)N2")
1.4
>>> endpoint_value("O=C1Nc2ccccc2/C1=C/Nc1ccc(S(=O)(=O)Nc2nccs2)cc1")
3.8
>>> endpoint_value("NS(=O)(=O)c1ccc(NN=C2C(=O)Nc3ccc(O)cc32)cc1")
0.077
>>> endpoint_value("C/C(Nc1ccc(S(N)(=O)=O)cc1)=C1/C(=O)Nc2ccccc21 [GW335962X]")
2.3
>>> endpoint_value("CCOC(=O)c1cccc2c1/C(=C/Nc1ccc(S(N)(=O)=O)cc1)C(=O)N2")
0.13
>>> endpoint_value("NS(=O)(=O)c1ccc(NN=C2C(=O)Nc3ccc4[nH]nc(Cl)c4c32)cc1")
0.083
>>> endpoint_value("NS(=O)(=O)c1ccc(N/C=C2\\C(=O)Nc3ccc(-c4cnco4)cc32)cc1")
0.017
>>> endpoint_value("NS(=O)(=O)c1ccc(N/C=C2\\C(=O)Nc3ccc(C(=O)O)cc32)cc1")
0.15
>>> endpoint_value("CC(C)c1ccc2c(c1)NC(=O)/C2=N/Nc1ccc(S(N)(=O)=O)cc1 [GW300653X]")
0.79
>>> endpoint_value("O=C1Nc2ccc3ncsc3c2/C1=C/Nc1ccc(S(=O)(=O)Nc2ccccc2)cc1")
0.041
>>> endpoint_value("O=C1Nc2ccc3ncsc3c2/C1=C/Nc1ccc(CS(=O)(=O)NCCO)cc1")
0.2
>>> endpoint_value("CNS(=O)(=O)Cc1ccc(N/C=C2\\C(=O)Nc3ccc4ncsc4c32)cc1")
0.17
>>> endpoint_value("NS(=O)(=O)c1ccc(N/N=C2\\C(=O)Nc3cccc(/C=C/c4ccc(O)cc4)c32)cc1")
0.17
